Value source: patent US20230295201A1

tested on: HCV replicon 2A; assay: HCV Rep 2A EC50 (replicon luciferase); assay type: cell-based; details: Hepatitis C virus, 72 h, read-out: HCV Rep 2A EC50, replicon cells, 3 days
Below, each entry is listed with its recorded EC50.

compound	EC50 [µM]
CCCCCCCCCCCC(=O)OCCNP(=O)(OC[C@@]1(C#N)O[C@@H](c2ccc3c(N)ncnn23)[C@H](O)[C@@H]1O)Oc1ccccc1 (mixture of isomers) [Example 181]	1.68
CCC(CC)COC(=O)[C@H](CC)NP(=O)(OC[C@@]1(C#N)O[C@@H](c2ccc3c(N)ncnn23)[C@H](O)[C@@H]1O)Oc1ccccc1 (mixture of isomers) [Example 88]	27.7
C[C@H](N[P@](=O)(OC[C@@]1(C#N)O[C@@H](c2ccc3c(N)ncnn23)[C@H](O)[C@@H]1O)Oc1ccccc1)C(=O)O[C@H]1CC[C@H](C(F)(F)F)CC1 (single isomer, unassigned) [Example 18]	1.49

---

In this section we review reported EC50 values for a set of compounds.
system: RSV strain A2; test: RSV HEp-2 EC50 (infectious cytopathic cell protection assay); type: cell-based; conditions: human respiratory syncytial virus, HEp-2, 96 h, HEp-2 cells, RSV A2, 4 days; read-out: RSV HEp-2 EC50
property-name: EC50 (µM)

compound	val
CCN1CCC(OC(=O)[C@H](C)NP(=O)(OC[C@@]2(C#N)O[C@@H](c3ccc4c(N)ncnn34)[C@H](O)[C@@H]2O)Oc2ccccc2)C(F)(F)C1 (stereo partly drawn) [Example 32]	3.44
COCCOc1ccc(OP(=O)(N[C@@H](C)C(=O)OC(C)C)OC[C@@]2(C#N)O[C@@H](c3ccc4c(N)ncnn34)[C@H](O)[C@@H]2O)cc1 (stereo partly drawn) [Example 53]	2.36
CCC(CC)COC(=O)[C@H](Cc1ccccc1)NP(=O)(OC[C@@]1(C#N)O[C@@H](c2ccc3c(N)ncnn23)[C@H](O)[C@@H]1O)Oc1ccccc1 (stereo partly drawn) [Example 81]	3.57
C[C@H](NP(=O)(OC[C@@]1(C#N)O[C@@H](c2ccc3c(N)ncnn23)[C@H](O)[C@@H]1O)Oc1ccccc1)C(=O)O[C@H]1CC[C@H](N)CC1 (stereo partly drawn) [Example 33]	1.91
CC(=O)N1CC[C@@H](OC(=O)[C@H](C)NP(=O)(OC[C@@]2(C#N)O[C@@H](c3ccc4c(N)ncnn34)[C@H](O)[C@@H]2O)Oc2ccccc2)C1 (stereo partly drawn) [Example 146]	9.72
C[C@@H](NP(=O)(OC[C@@]1(C#N)O[C@@H](c2ccc3c(N)ncnn23)[C@H](O)[C@@H]1O)Oc1ccccc1)C(=O)OCC(C)(C)C (stereo partly drawn) [Example 102]	9.95

---

test system: RSV strain A2; test: RSV HEp-2 EC50 (infectious cytopathic cell protection assay); type: cell-based; details: human respiratory syncytial virus, HEp-2, 96 h, HEp-2 cells, RSV A2, 4 days; read-out: RSV HEp-2 EC50
pEC50: −log10 of the molar value.

compound	comparison-symbol	pEC50
CCCC(=O)Nc1ncnn2c([C@@H]3O[C@](C#N)(CO[P@@](=O)(N[C@@H](C)C(=O)OC4CCCCC4)Oc4ccccc4)[C@@H](O)[C@H]3O)ccc12	=	6.82
C[C@H](N[P@](=O)(OC[C@@]1(C#N)O[C@@H](c2ccc3c(N)ncnn23)[C@@H]2OC(=O)O[C@@H]21)Oc1ccccc1)C(=O)OC1CCCCC1	=	7.28
C[C@H](NP(=O)(OC[C@@]1(C#N)O[C@@H](c2ccc3c(N)ncnn23)[C@H](O)[C@@H]1O)Oc1ccccc1)C(=O)OC1CCC(C)(C)CC1 (stereo partly drawn)	=	7.10
CC(C)(C)C(=O)OCCNP(=O)(NCCOC(=O)C(C)(C)C)OC[C@@]1(C#N)O[C@@H](c2ccc3c(N)ncnn23)[C@H](O)[C@@H]1O	<	4.48
CC(C)OC(=O)[C@H](Cc1ccccc1)NP(=O)(OC[C@@]1(C#N)O[C@@H](c2ccc3c(N)ncnn23)[C@H](O)[C@@H]1O)Oc1ccccc1 (stereo partly drawn)	=	5.42
CCC(CC)COC(=O)[C@H](CC1CC1)NP(=O)(OC[C@@]1(C#N)O[C@@H](c2ccc3c(N)ncnn23)[C@H](O)[C@@H]1O)Oc1ccccc1 (stereo partly drawn)	=	5.70
